// provenance: PubChem BioAssay (NCI)

List of TGI values.
test system: SF-539 CNS; assay: NCI tumour cell line growth inhibition, 48 h

molecule	tested-target	TGI
Cn1c2c(c3ccccc31)CCN=C2C1CCCOC1=O (centres undefined)	SF-539 CNS	> 100 µM
COc1ccc(C(=O)O[C@H]2CC[C@@]3(C)[C@@H]4CC[C@H]5[C@]6(O)C[C@H](O)[C@@]7(O)[C@@H](CN8C[C@@H](C)CC[C@H]8[C@@]7(C)O)[C@]6(O)C[C@@]53OC24O)cc1OC	SF-539 CNS	> 100 µM
O=C(O)c1nc2ccc(Cl)cc2[nH]c1=O	SF-539 CNS	> 100 µM
CC(C)(C)OP(=O)(OC(C)(C)C)C(O)c1ccc(/C=C(\C#N)C(N)=O)cc1 (centres undefined)	SF-539 CNS	> 100 µM
COc1cc2cc(C(=O)N3CC(CCl)c4ccc([N+](C)(C)Cc5ccc([N+](=O)[O-])cc5)cc43)[nH]c2c(OC)c1OC (centres undefined)	SF-539 CNS	5.64 µM

**Q:** Fill in the recorded TGI for this molecule, with SF-539 CNS as test system: CC(=O)N1c2ccccc2C2=NN(C)C(=N)SC21 (centres undefined)
**A:** > 100 µM

**Q:** Fill in the recorded TGI for this molecule, with SF-539 CNS as test system: N#CCCN(CCC#N)c1ccc(C(N=Nc2ccc(Cl)cc2)=Nc2ccccc2)cc1
**A:** 29.1 µM

**Q:** Fill in the recorded TGI for this molecule, with SF-539 CNS as test system: O=C1NC(N2CCCC(CO)C2)=N/C1=C\c1ccccc1 (centres undefined)
**A:** > 100 µM

**Q:** Fill in the recorded TGI for this molecule, with SF-539 CNS as test system: O=c1[nH]nc(-c2ccccc2)n1/N=C/c1ccco1
**A:** > 100 µM
